- tested.target: Neuropeptide Y receptor type 5 (Mus musculus, UniProt O70342)
- Sequence (O70342 whole entry): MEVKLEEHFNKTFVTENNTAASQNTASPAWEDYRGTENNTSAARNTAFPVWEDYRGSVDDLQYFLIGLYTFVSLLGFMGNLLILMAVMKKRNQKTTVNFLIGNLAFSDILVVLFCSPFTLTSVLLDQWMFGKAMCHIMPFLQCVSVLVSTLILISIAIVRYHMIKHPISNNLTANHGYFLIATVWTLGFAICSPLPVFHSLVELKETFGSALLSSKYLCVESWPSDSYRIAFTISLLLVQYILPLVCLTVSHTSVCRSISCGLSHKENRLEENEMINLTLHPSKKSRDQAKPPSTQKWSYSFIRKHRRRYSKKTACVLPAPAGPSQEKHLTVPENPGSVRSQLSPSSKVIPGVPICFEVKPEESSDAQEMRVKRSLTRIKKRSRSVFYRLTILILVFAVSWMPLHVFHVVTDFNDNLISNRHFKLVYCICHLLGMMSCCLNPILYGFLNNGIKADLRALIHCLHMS
- measurement.description: Inhibitory concentration against Neuropeptide Y receptor type 5 in mouse
- Type: organism-based
experimental.endpoint: IC50 (nM)

Example compounds with recorded IC50:
Cc1cc(C(=O)c2cnc(Nc3cccc(C(F)(F)F)c3)s2)c(C)s1; 395
O=C(c1cnc(Nc2ccc(Cl)cc2)s1)c1ccccc1F; 1670
CCc1ccccc1C(=O)c1cnc(Nc2cccc(C(F)(F)F)c2)s1; 32
COc1cccc(Nc2ncc(C(=O)c3ccccc3F)s2)c1; 1000

A. O=C(c1cccc(F)c1)c1cnc(Nc2cccc(C(F)(F)F)c2)s1
B. CCc1ccccc1C(=O)c1cnc(Nc2cccc(C#N)c2)s1
C. O=C(c1cnc(Nc2cccc(C(F)(F)F)c2)s1)c1ccccc1C(F)(F)F
QUERY: Thanks in advance: please rank these 3 entries by IC50, highest to lowest. Returns: the labels arranged in the requested order.
RESULT: A, C, B

P. Cc1ccccc1C(=O)c1cnc(Nc2cccc(C#N)c2)s1
Q. N#Cc1cccc(Nc2ncc(C(=O)c3ccccc3F)s2)c1
QUERY: Between the two listed entries P and Q , which has its IC50 at the higher number? Choose, then provide that item's label.
RESULT: Q
(Q: 19 nM, P: 4.2 nM)

----------
- tested.target: Neuropeptide Y receptor type 5 (Mus musculus, UniProt O70342)
- measurement.description: Inhibitory concentration against Neuropeptide Y receptor type 5 in mouse
- Assay type: organism-based
experimental.endpoint: IC50 (nM)

Example compounds with recorded IC50:
Cc1cc(C(=O)c2cnc(Nc3cccc(C#N)c3)s2)c(C)s1; 14
N#Cc1cccc(Nc2ncc(C(=O)c3ccccc3C(F)(F)F)s2)c1; 20

1. COc1ccc(C(=O)c2cnc(Nc3cccc(C#N)c3)s2)cc1
2. Cc1ccccc1C(=O)c1cnc(Nc2cccc(C(F)(F)F)c2)s1
QUERY: Between the two listed entries 1 and 2 , which has its IC50 at the higher number? Choose, then provide that item's label.
RESULT: 1
(1: 2230 nM, 2: 63 nM)
